# PROTOCOL TEXT: NCI Yeast Anticancer Drug Screen. Data for the mlh1 rad18 strain (AID 175)
# CONDITION DESCRIPTION: S. cerevisiae mlh1 rad18 strain growth inhibition, hits give high values; at 50.0 µM unless noted
This is part of a sample that, as a whole, favours compounds with a hit. Of some 79,000 tested, about 15% had one in any assay.
MEASURED ATTRIBUTE: growth inhibition (%)
Numeric only. Scale: %

Past entries and their recorded results:
# input Given the compound Cc1c(NC(=S)NC(=O)c2ccc([N+](=O)[O-])cc2)c(=O)n(-c2ccccc2)n1C , write its reported growth inhibition.
# output 18.6

# input Given the compound CC(C)c1ccccc1O , write its reported growth inhibition.
# output 22.4

# input Given the compound Cc1cccc(-c2cc3ccccc3c(Cl)n2)n1 , write its reported growth inhibition.
# output 7.7

# input Given the compound Cc1ccc(C(=O)c2ccc([N+](=O)[O-])cc2)cc1 , write its reported growth inhibition.
# output -41.1

# input Given the compound CC[N+](C)(CC)CCNC(=O)C(c1ccccc1)c1ccccc1 , write its reported growth inhibition.
# output 16.2

Others:
# input Given the compound CCN(CC)c1ccc(/C=N/Nc2cc(C)nc3ccc(C4CCCCC4)cc23)cc1 , write its reported growth inhibition.
# output 44.9

# input Given the compound CC1=C(C(=O)Nc2ccccc2)C(c2ccc3c(c2)OCO3)C(C(=O)Nc2ccccc2)=C(C)N1 , write its reported growth inhibition.
# output 27.1

# input Given the compound O=c1c2ccccc2[nH]c(=S)n1CCc1ccccn1 , write its reported growth inhibition.
# output -7.65

# input Given the compound Cn1c2ccc(Cl)cc2c2ccc3c(c21)C(=O)C=CC3=O , write its reported growth inhibition.
# output -8.05

# input Given the compound O=C(c1ccccc1)c1cccc(C(=O)c2ccccc2)c1 , write its reported growth inhibition.
# output -16.6

# input Given the compound Nc1ccc(S(=O)[O-])cc1.Nc1ccc(S(=O)[O-])cc1.[Zn+2] , write its reported growth inhibition.
# output -15.6

----------
Listing of entries alongside the reported growth inhibition.
# PROTOCOL TEXT: NCI Yeast Anticancer Drug Screen. Data for the cln2 rad14 strain (AID 165);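 also: 0% = growth equal to vehicle treated cultures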
# CONDITION DESCRIPTION: S. cerevisiae cln2 rad14 strain, hits give high values; at 50.0 µM unless noted
Compounds without any hit were thinned out: in the full panel of roughly 79,000, 15% have a hit.
Numeric only. Scale: %

Past entries and their recorded results:
# input Given the molecule O=C(O)CCc1[nH]c(I)nc1I , write its reported growth inhibition.
# output -0.7

# input Given the molecule CC1(C)OC1CS(=O)c1ccccc1 (stereo unspecified) , write its reported growth inhibition.
# output -17.4

# input Given the molecule Oc1ccccc1/C=N\N=C\NN/C=N/N=C/c1ccccc1O , write its reported growth inhibition.
# output 13.8

# input Given the molecule COC(=O)Nc1ccc(Cc2ccc(NC(=O)OC)cc2)cc1 , write its reported growth inhibition.
# output 15.7

# input Given the molecule C1=CC(=CN2CCc3ccccc3C2)C=C1 , write its reported growth inhibition.
# output -6.95

# input Given the molecule CCCCCCC1(C)NC(=O)NC1=O (stereo unspecified) , write its reported growth inhibition.
# output -77.1

# input Given the molecule COc1ccccc1C1OC(N)=C(O)C1=O (stereo unspecified) , write its reported growth inhibition.
# output -15.3

# input Given the molecule CN(Cc1ccccc1Cl)C(=S)NC1CCCCC1 , write its reported growth inhibition.
# output 34.8

Others:
# input Given the molecule CCC1CSC(NS(=O)(=O)c2ccc(N)cc2)=N1 (stereo unspecified) , write its reported growth inhibition.
# output -39

# input Given the molecule CCCCCCC1OC(C)C(C)O1 (stereo unspecified) , write its reported growth inhibition.
# output -5.15

# input Given the molecule O=C(CC1CCCCC1)OCCOCCO , write its reported growth inhibition.
# output 3.35
